# credit: patent US10435399B2

TEST TARGET: HDAC6 enzyme (Homo sapiens, UniProt Q9UBN7)
Construct: transducing full length HDAC6 gene into Sf-9 insect cells; GST; purchased SignalChem; host or cells: Sf-9 insect cells
PROTOCOL NOTES: HDAC6 enzyme inhibitory activity (HDAC-Glo I/II Assay kit)
Format: biochemical
ASSAY CONTEXT: 10 μM; wells without enzyme = 100% inhibition; read-out: HDAC6 inhibitory rate (%) (10 μM)
REPORTED METRIC: inhibition at 10 µM

In the examples that follow, each entry is paired with its recorded inhibition at 10 µM.
INSERT INTO results (smiles_repr, test_target, result_value) VALUES
  ('O=C1c2cc(-c3nnc(C(F)F)o3)ccc2CN1c1cccc(F)c1-c1cnn(C(F)F)c1', 'HDAC6 enzyme (Homo sapiens, UniProt Q9UBN7)', '101%'),
  ('O=C1c2cc(-c3nnc(C(F)F)o3)cc(F)c2CN1C[C@H]1CC(F)(F)CN1S(=O)(=O)c1cccc(F)c1', 'HDAC6 enzyme (Homo sapiens, UniProt Q9UBN7)', '99%');

INPUT: Identify measured inhibition at 10 µM associated with "COC(=O)N1CCOC[C@@H]1CN1Cc2ccc(-c3nnc(C(F)F)o3)cc2C1=O"
OUTPUT: 98%

INPUT: Look up inhibition at 10 µM of "O=C1c2cc(-c3nnc(C(F)F)o3)cc(F)c2CN1C[C@@H]1CC(F)(F)CN1S(=O)(=O)c1cccc(F)c1" and report it.
OUTPUT: 99%

INPUT: # return recorded inhibition at 10 µM for input "O=C1c2cc(-c3nnc(C(F)F)o3)cnc2CN1Cc1cccc(Br)c1"
OUTPUT: 99%

INPUT: Note down inhibition at 10 µM recorded for "N#Cc1ccc(N2Cc3ccc(-c4nnc(C(F)F)o4)cc3C2=O)c(-c2cccc(F)c2)c1"
OUTPUT: 100%

INPUT: Given "O=C(N[C@@H]1CCCC[C@H]1N1Cc2ccc(-c3nnc(C(F)F)o3)cc2C1=O)c1ccccc1" , respond with its inhibition at 10 µM.
OUTPUT: 101%

INPUT: Report inhibition at 10 µM, nothing else, for this molecule: "O=C1c2cc(-c3nnc(C(F)F)o3)cc(F)c2CN1C[C@H]1COCCN1CC(F)(F)C(F)(F)F"
OUTPUT: 100%

* * *

TEST TARGET: HDAC6 enzyme (Homo sapiens)
Construct: transducing full length HDAC6 gene into Sf-9 insect cells; GST; purchased SignalChem; host or cells: Sf-9 insect cells
Sequence (Q9UBN7 1-1215): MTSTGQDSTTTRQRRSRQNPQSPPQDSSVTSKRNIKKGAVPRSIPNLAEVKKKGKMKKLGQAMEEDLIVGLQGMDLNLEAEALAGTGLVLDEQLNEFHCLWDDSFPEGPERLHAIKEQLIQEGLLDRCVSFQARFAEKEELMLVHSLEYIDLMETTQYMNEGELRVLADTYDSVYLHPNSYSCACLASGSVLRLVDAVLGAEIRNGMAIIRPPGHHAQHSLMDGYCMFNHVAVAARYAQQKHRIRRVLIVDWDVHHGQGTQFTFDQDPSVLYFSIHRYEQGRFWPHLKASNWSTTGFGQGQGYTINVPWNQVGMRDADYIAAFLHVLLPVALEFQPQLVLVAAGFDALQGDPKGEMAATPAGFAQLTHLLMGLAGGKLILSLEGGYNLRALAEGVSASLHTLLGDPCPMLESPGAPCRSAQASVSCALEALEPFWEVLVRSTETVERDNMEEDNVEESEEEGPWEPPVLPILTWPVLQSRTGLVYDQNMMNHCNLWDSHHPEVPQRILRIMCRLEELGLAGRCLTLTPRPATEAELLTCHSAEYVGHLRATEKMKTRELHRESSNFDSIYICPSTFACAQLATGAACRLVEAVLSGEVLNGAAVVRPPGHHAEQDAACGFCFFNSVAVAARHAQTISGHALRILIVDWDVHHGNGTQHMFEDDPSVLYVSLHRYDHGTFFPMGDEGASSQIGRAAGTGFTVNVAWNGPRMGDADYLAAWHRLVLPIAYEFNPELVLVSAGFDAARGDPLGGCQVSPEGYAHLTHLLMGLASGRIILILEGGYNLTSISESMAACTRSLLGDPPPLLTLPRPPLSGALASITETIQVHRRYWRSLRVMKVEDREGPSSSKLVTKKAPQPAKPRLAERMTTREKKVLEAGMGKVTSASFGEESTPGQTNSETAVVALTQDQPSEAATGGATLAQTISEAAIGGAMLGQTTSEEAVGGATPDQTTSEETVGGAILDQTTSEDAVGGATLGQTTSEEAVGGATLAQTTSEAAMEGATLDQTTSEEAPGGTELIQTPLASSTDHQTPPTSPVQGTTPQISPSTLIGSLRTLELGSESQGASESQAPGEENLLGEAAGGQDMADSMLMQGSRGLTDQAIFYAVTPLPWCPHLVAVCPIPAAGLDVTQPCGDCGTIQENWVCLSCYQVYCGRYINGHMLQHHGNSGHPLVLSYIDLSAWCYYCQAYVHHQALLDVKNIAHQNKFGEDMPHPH
PROTOCOL NOTES: HDAC6 enzyme inhibitory activity (HDAC-Glo I/II Assay kit)
Assay type: biochemical
ASSAY CONTEXT: 10 μM; wells without enzyme = 100% inhibition; read-out: HDAC6 inhibitory rate (%) (10 μM)
Experimental: HDAC6 enzyme prepared by transducing full length HDAC6 gene into Sf-9 insect cells and purifying by GST affinity column were purchased from SignalChem. Using this enzyme, HDAC6 enzyme inhibitory activities of the compound of the present invention were evaluated. Enzymes were used after preserved at −70° C. HDAC6 enzyme inhibitory activity of the compound of the present invention was measured using HDAC-Glo™ I/II Assay kit (Promega) according to the following experimental method. […]
REPORTED METRIC: inhibition at 10 µM (%)
Provide only the numeric value, understood in %.

INSERT INTO measurements (molecule, result_value) VALUES
  ('Cn1cc(-c2ccccc2N2Cc3c(F)cc(-c4nnc(C(F)F)o4)cc3C2=O)cn1 [Example 392]', 99),
  ('CC(C)(C(=O)N[C@@H]1CCCC[C@H]1N1Cc2ccc(-c3nnc(C(F)F)o3)cc2C1=O)c1ccccc1 [Example 88]', 99),
  ('N#Cc1ccc(-c2ccccc2N2Cc3ccc(-c4nnc(C(F)F)o4)cc3C2=O)cc1 [Example 279]', 89);

# ---- query molecule ----
INPUT: Please indicate inhibition at 10 µM recorded for O=C1c2cc(-c3nnc(C(F)F)o3)ccc2CN1[C@H]1CCCN[C@@H]1c1ccc(F)cc1 (racemic) [Example 575]
OUTPUT: 100
